Below is a list of entries, each paired with its recorded log10 of TGI value.
system: HCT-15 colon; assay: NCI tumour cell line growth inhibition, 48 h
The base-10 logarithm of TGI, taken with TGI in µM, is what appears here.

The examples below pair each entry with its known result.
// query Using the record for COC(=O)C1=C(C(=O)OC)C(C(=O)OC)C(C(=O)OC)C(C(=O)OC)(C(=O)OC)C(C(=O)OC)=C1C(=O)OC (stereo not given) , report its log10 of TGI.
// result 1.33

// query Using the record for COc1ccc(-c2nc(/C=N/Nc3cc(C)nc4ccc(Br)cc34)c(C)o2)cc1 , report its log10 of TGI.
// result 0.37

// query Using the record for O=c1n(CCCN2CCOCC2)nc2n1-c1ccc3ccccc3c1SC2 , report its log10 of TGI.
// result 1.83

// query Using the record for CCCCOP1(=O)C=CC(Cl)=C(C)C1 (stereo not given) , report its log10 of TGI.
// result 1.52

// query Using the record for CN1C2CCC1C(CO)C(=O)C2 (stereo not given) , report its log10 of TGI.
// result 1.88

// query Using the record for CC1=CC(O)CC(C)(C)C1/C=C/C(C)=C/C=C/C(C)=C/C=C/C=C(C)/C=C/C=C(C)/C=C/C1=C(C)CC(O)CC1(C)C (stereo not given) , report its log10 of TGI.
// result 1.54

***
// query Using the record for CC(Br)CN(CC(C)Br)c1ccc2c(c1)Cc1ccccc1-2 (stereo not given) , report its log10 of TGI.
// result 1.44

// query Using the record for COc1ccc2nc3cc(Cl)ccc3c(Nc3ccc(O)c(CN4CCCC4)c3)c2c1 , report its log10 of TGI.
// result 1.01

====

test system: M19-MEL melanoma; experiment: NCI tumour cell line growth inhibition, 48 h
measurement-name: TGI

// query Using the record for COC(=O)Cc1cc(=O)oc2c1C(=O)CCC2 , report its TGI.
// result > 100 µM

***
// query Using the record for CC1(C)Oc2ccccc2N2O[C@@H]3C(=O)N(c4ccccc4)C(=O)[C@@H]3C21c1ccccc1 (stereo not given in full) , report its TGI.
// result 72.5 µM

// query Using the record for C=C1c2ccccc2N(S(=O)(=O)c2ccc(C)cc2)C12CCCCC2 , report its TGI.
// result > 100 µM

// query Using the record for O=C1CN(c2ccccc2)C(=O)C1C(=O)Nc1ccc(Cl)c(Cl)c1 (stereo not given) , report its TGI.
// result 14.8 µM

// query Using the record for O=C1[C@H]2ON(c3ccccc3)C(c3cccc([N+](=O)[O-])c3)[C@H]2C(=O)N1c1ccc(Cc2ccc(N3C(=O)[C@@H]4ON(c5ccccc5)C(c5cccc([N+](=O)[O-])c5)[C@@H]4C3=O)cc2)cc1 (stereo not given in full) , report its TGI.
// result > 100 µM

// query Using the record for O=C1Cc2ccccc2CCc2ccccc21 , report its TGI.
// result > 100 µM

// query Using the record for O=C1OC(c2ccc(Cl)c3ccccc23)c2ccccc21 (stereo not given) , report its TGI.
// result > 100 µM

// query Using the record for COc1cc2c3c(c1OC)/C(=N/OS(=O)(=O)c1ccc(C)cc1)CC3N(S(=O)(=O)c1ccc(C)cc1)CC2 (stereo not given) , report its TGI.
// result > 100 µM

// query Using the record for O=C(/C=C/CC(O)(c1ccccc1)c1ccccc1)Nc1ccccc1Cl , report its TGI.
// result > 100 µM

// query Using the record for CCCCOP1(=O)C=CC(Cl)=C(C)C1 (stereo not given) , report its TGI.
// result > 100 µM
